Biological target: Furin (108-574-Tev-Flag-His) enzyme (Homo sapiens, UniProt P09958)
Construct: Furin (108-574-Tev-Flag-His) enzyme was expressed and purified from CHO cells; TEV cleavage site (C); FLAG (C); His (C); made in house; host or cells: CHO cells
Sequence (P09958 108-574): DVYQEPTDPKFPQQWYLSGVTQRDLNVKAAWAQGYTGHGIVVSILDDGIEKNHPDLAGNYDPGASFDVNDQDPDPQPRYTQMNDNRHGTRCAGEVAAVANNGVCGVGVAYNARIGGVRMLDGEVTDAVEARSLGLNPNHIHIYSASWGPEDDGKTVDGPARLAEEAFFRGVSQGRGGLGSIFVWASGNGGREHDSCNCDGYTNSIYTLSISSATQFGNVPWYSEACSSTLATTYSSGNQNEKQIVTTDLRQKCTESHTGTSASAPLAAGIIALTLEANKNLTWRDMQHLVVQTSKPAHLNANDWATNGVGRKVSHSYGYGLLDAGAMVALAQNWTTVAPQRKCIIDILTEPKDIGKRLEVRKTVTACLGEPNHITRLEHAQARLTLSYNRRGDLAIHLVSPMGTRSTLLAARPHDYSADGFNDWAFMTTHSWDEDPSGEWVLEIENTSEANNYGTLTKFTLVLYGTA
Test: Furin enzyme assay
Type: biochemical
Structures can show the parent of a compound that is named as a salt.
quantity-measured: furin enzyme pIC50
Lab note: jot down the number only; don't add units.

Recorded results for 6 molecules are shown here.
CC(=O)NCC1CCN(Cc2cc(Oc3cnc(N4CCN(C)CC4)cn3)nc(-c3cc(Cl)cc(Cl)c3)c2)CC1
10.3
CN1CCN(c2ccc(Oc3cc(CN4CC[C@@H]5[C@H](CC4)[C@H]5C(=O)O)cc(-c4cc(Cl)cc(Cl)c4)n3)cn2)CC1
9.8
CC(=O)NCC1CCN(Cc2cc(-c3cc(Cl)cc(Cl)c3)nc(Oc3cnc(N4CCN(CCC(C)C(=O)O)CC4)nc3)c2F)CC1 (stereo not shown)
8.9
COC(=O)NCC1CCN(Cc2cc(Oc3ccc(N4CCN(CCCS(C)(=O)=O)CC4)nc3)nc(-c3cc(Cl)cc(Cl)c3)c2)CC1
9.8
COC(=O)NCC1CCN(Cc2cc(Oc3cnc(N4CCN(C)CC4)cn3)nc(-c3cc(Cl)cc(Cl)c3)c2)CC1
9.2
CN1CCN(c2ccc(Oc3cc(CN4CCC(CC(=O)O)CC4)cc(-c4cc(Cl)cc(Cl)c4)n3)cn2)CC1
9

Please find the next molecule below.
Requested field: furin enzyme pIC50. Item: O=S(=O)(O)CC1CCN(Cc2cc(Oc3ccc(N4CCNCC4)nc3)nc(-c3cc(Cl)cc(Cl)c3)c2)CC1 [Example 8, hydrochloride]
8.9

###

Biological target: Furin (108-574-Tev-Flag-His) enzyme (Homo sapiens)
Construct: Furin (108-574-Tev-Flag-His) enzyme was expressed and purified from CHO cells; TEV cleavage site (C); FLAG (C); His (C); made in house; host or cells: CHO cells
Assay: Furin enzyme assay
Assay type: biochemical
Details: read-out: furin enzyme pIC50 (converted)
IC50 by entry:
Use nM as the unit, but write only the number.

Requested field: IC50. Item: CNC(=O)NCC1CCN(Cc2cc(Oc3cnc(N4CCN(CCC(C)[S+](C)[O-])CC4)nc3)nc(-c3cc(Cl)cc(Cl)c3)c2)CC1 (stereo not drawn) [Example 17]
0.0316

Let us now turn to COC(=O)NCC1CCN(Cc2cc(Oc3cnc(N4CC5CCC(C4)N5CCC(=O)O)nc3)nc(-c3cc(Cl)cc(Cl)c3)c2)CC1 [Example 56]
0.0316

Let us now turn to CNC(=O)OCC1CCN(Cc2cc(Oc3cnc(N4CCN(CCC(=O)O)CC4)nc3)nc(-c3cc(Cl)cc(Cl)c3)c2)CC1 [Example 248]
0.0316

###

Target: furin (endogenous protease) in U20S cells (Homo sapiens, UniProt P09958)
Construct: the endogenous protease cleaves GFP; endogenous in cells; host or cells: U2OS cells transduced with a BacMam reporter
Sequence (P09958 108-794): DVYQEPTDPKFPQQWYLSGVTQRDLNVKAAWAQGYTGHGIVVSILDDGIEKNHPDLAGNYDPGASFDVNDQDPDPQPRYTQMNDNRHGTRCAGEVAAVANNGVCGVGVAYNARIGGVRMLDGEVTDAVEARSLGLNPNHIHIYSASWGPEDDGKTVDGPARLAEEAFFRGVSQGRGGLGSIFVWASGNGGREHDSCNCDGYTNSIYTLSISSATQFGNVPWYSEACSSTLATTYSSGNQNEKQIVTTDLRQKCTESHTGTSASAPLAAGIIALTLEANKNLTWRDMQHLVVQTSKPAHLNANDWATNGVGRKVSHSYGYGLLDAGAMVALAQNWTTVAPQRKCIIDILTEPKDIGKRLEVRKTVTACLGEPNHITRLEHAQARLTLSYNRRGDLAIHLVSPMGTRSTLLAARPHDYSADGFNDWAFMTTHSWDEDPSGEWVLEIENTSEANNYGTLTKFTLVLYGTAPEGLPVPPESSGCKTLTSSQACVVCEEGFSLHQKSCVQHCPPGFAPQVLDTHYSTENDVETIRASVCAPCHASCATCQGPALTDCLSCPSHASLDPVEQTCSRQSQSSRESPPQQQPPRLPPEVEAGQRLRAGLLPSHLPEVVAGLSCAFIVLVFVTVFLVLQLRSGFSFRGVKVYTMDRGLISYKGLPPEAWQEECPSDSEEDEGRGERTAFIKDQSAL
Test: Furin cell-based assay (image-based, Golgi-targeted GFP with BMP10 furin/PCSK cleavage site);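 further: Read-out is mean GFP fluorescence of Golgi puncta per cell by high-content imaging, retained when furin inhibited, over an eleven-point 0.00017–10 µM series, four-parameter fit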
Details: 24-hour incubation, read-out: furin golgi cell pXC50 (converted)
Counter-ions that a name gives are not always drawn.
EC50 strictly under 10 nM means t; at 10 nM or over means f.

CC(=O)NCC1CCN(Cc2cc(Oc3ccc(N4CCN(CC(O)CCO)CC4)nc3)nc(-c3cc(Cl)cc(Cl)c3)c2)CC1 (stereo not drawn)
t
O=C(O)CC1CCN(Cc2cc(Oc3ccc(N4C[C@@H]5C[C@H]4CN5)nc3)nc(-c3cc(Cl)cc(Cl)c3)c2)CC1
f
CNC(=O)NCC1CCN(Cc2cc(Oc3cnc(N4CCN(CCOC)CC4)nc3)nc(-c3cc(Cl)cc(Cl)c3)c2)CC1
t
CN1CCN(c2ncc(Oc3cc(CN4CCC(NC(N)=O)CC4)cc(-c4cc(Cl)cc(Cl)c4)n3)cn2)CC1
f
CNC(=O)CCN1CCN(c2ncc(Oc3cc(CN4CCC(CNC(C)=O)CC4)cc(-c4cc(Cl)cc(Cl)c4)n3)cn2)CC1 [Example 94, hydrochloride]
t
CC(=O)NCC1CCN(Cc2cc(Oc3ccc(N4CCC5(CCNC5)C4)nc3)nc(-c3cc(Cl)cc(Cl)c3)c2)CC1 (stereo not drawn)
t
CN1CCCN(c2ncc(Oc3cc(CN4CCC(CB(O)O)CC4)cc(-c4cc(Cl)cc(Cl)c4)n3)cn2)CC1
t
CNC(=O)OCC1CCN(Cc2cc(Oc3cnc(N4CCN(C(C)CCO)CC4)nc3)nc(-c3cc(Cl)cc(Cl)c3)c2)CC1 (stereo not drawn)
t

Consider the molecule "CC1(C)CN(c2ncc(Oc3cc(CN4CCC(CC(=O)O)CC4)cc(-c4cc(Cl)cc(Cl)c4)n3)cn2)CCN1" . Is its EC50 strictly less than 10 nM?
f

Let us now turn to "CC(=O)NCC1CCN(Cc2cc(Oc3ccc(N4CC[N+](C)(O)CC4)nc3)nc(-c3cc(Cl)cc(Cl)c3)c2)CC1"
t

Let us now turn to "CN1CCN(c2ncc(Oc3cc(CN4CCC(CC(N)=O)CC4)cc(-c4cc(Cl)cc(Cl)c4)n3)cn2)CC1"
t
